Dear all, this message contains IC50 results, target or system SARS-CoV-2 nsp13 (Severe acute respiratory syndrome coronavirus 2, UniProt P0DTD1).
Please give a number only; it is taken to be in nM.

Below, 4 molecules whose answers are already recorded.
molecule: C#CCC(Cc1cnc2nc(N)nc(N)c2n1)c1ccc(C(=O)N[C@@H](CCC(=O)O)C(=O)O)cc1 (some centres unmarked) [Pralatrexate]
property.label: IC50
meas.value: 140
--
molecule: CN(Cc1cnc2nc(N)nc(N)c2n1)c1ccc(C(=O)N[C@@H](CCC(=O)O)C(=O)O)cc1 [Methotrexate hydrate]
property.label: IC50
meas.value: 2030
--
molecule: COc1cc(NCc2ccc3nc(N)nc(N)c3c2C)cc(OC)c1OC [Trimetrexate]
property.label: IC50
meas.value: 1560
--
molecule: Nc1nc(N)c2nc(CNc3ccc(C(=O)N[C@@H](CCC(=O)O)C(=O)O)cc3)cnc2n1
property.label: IC50
meas.value: 2590

Here's the next entry for you.
Result for Cc1nc2ccc(CN(C)c3ccc(C(=O)N[C@@H](CCC(=O)O)C(=O)O)s3)cc2c(=O)[nH]1 , tested on SARS-CoV-2 nsp13 (Severe acute respiratory syndrome coronavirus 2, UniProt P0DTD1), IC50: 3220

====

System: SARS-CoV-2
method: qPCR readout of viral replication in Vero E6 cells
Type: cell-based
experimental.conditions: Severe acute respiratory syndrome coronavirus 2, Vero C1008, viral replication by qPCR
property.label: IC50 (nM)
Please give a number only; it is taken to be in nM.

molecule: CN(Cc1cnc2nc(N)nc(N)c2n1)c1ccc(C(=O)N[C@@H](CCC(=O)O)C(=O)O)cc1 [Methotrexate hydrate]
display.unit: nM
meas.value: 440

Lab book: IC50 of C#CCC(Cc1cnc2nc(N)nc(N)c2n1)c1ccc(C(=O)N[C@@H](CCC(=O)O)C(=O)O)cc1 (some centres unmarked) [Pralatrexate] noted as 80

Lab book: IC50 of CCC(CC)COC(=O)[C@H](C)N[P@](=O)(OC[C@H]1O[C@@](C#N)(c2ccc3c(N)ncnn23)[C@H](O)[C@@H]1O)Oc1ccccc1 noted as 3200

Lab book: IC50 of Nc1nc(N)c2nc(CNc3ccc(C(=O)N[C@@H](CCC(=O)O)C(=O)O)cc3)cnc2n1 noted as 80

Lab book: IC50 of COc1cc(NCc2ccc3nc(N)nc(N)c3c2C)cc(OC)c1OC [Trimetrexate] noted as 80

====

# maps each entry to its pIC50
Tested on: SARS-CoV-2
method: microbe, parasite or virus in culture
Type: cell-based
experimental.conditions: Severe acute respiratory syndrome coronavirus 2, Vero C1008; read-out: CPE IC50
Kindly note that pIC50 refers to -log10 of the concentration in mol/L and answer with the value alone.

molecule: Nc1nc(N)c2nc(CNc3ccc(C(=O)N[C@@H](CCC(=O)O)C(=O)O)cc3)cnc2n1
property.label: pIC50
meas.value: 6.48
--
molecule: CCC(CC)COC(=O)[C@H](C)N[P@](=O)(OC[C@H]1O[C@@](C#N)(c2ccc3c(N)ncnn23)[C@H](O)[C@@H]1O)Oc1ccccc1
property.label: pIC50
meas.value: 5.56
--
molecule: COc1cc(NCc2ccc3nc(N)nc(N)c3c2C)cc(OC)c1OC [Trimetrexate]
property.label: pIC50
meas.value: 6.47

Lab book: pIC50 of C#CCC(Cc1cnc2nc(N)nc(N)c2n1)c1ccc(C(=O)N[C@@H](CCC(=O)O)C(=O)O)cc1 (some centres unmarked) [Pralatrexate] noted as 7.30

Lab book: pIC50 of CN(Cc1cnc2nc(N)nc(N)c2n1)c1ccc(C(=O)N[C@@H](CCC(=O)O)C(=O)O)cc1 [Methotrexate hydrate] noted as 5.55

====

Tested on: A549 ACE2+ cells
experimental.conditions: 48 h, CellTiter-Glo
property.label: CC50 (nM)
Please give a number only; it is taken to be in nM.

compound: Nc1nc2[nH]cc(CCc3ccc(C(=O)N[C@@H](CCC(=O)O)C(=O)O)cc3)c2c(=O)[nH]1 [Pemetrexed disodium heptahydrate]
property.label: CC50
meas.value: 2430

Here's the next entry for you.
Lab book: CC50 of Nc1nc(N)c2nc(CNc3ccc(C(=O)N[C@@H](CCC(=O)O)C(=O)O)cc3)cnc2n1 [Aminopterin] noted as 2490

====

method: in vitro
experimental.conditions: human, CC50, A549 ACE2+ cells, 48 h, CellTiter-Glo
# maps each entry to its CC50
Please give a number only; it is taken to be in nM.

Below, 3 compounds whose answers are already recorded.
compound: Cc1nc2ccc(CN(C)c3ccc(C(=O)N[C@@H](CCC(=O)O)C(=O)O)s3)cc2c(=O)[nH]1
CC50, nM: 890

compound: COc1cc(NCc2ccc3nc(N)nc(N)c3c2C)cc(OC)c1OC [Trimetrexate]
CC50, nM: 10

compound: CN(Cc1cnc2nc(N)nc(N)c2n1)c1ccc(C(=O)N[C@@H](CCC(=O)O)C(=O)O)cc1 [Methotrexate hydrate]
CC50, nM: 1180

Lab book: CC50 of C#CCC(Cc1cnc2nc(N)nc(N)c2n1)c1ccc(C(=O)N[C@@H](CCC(=O)O)C(=O)O)cc1 (stereo partly drawn) [Pralatrexate] noted as 8

====

Dear all, this message contains IC50 results, target or system serine protease TMPRSS2 (Homo sapiens).

Result for COc1cc(NCc2ccc3nc(N)nc(N)c3c2C)cc(OC)c1OC [Trimetrexate] , tested on serine protease TMPRSS2 (Homo sapiens), IC50: > 30 µM

Result for CN(Cc1cnc2nc(N)nc(N)c2n1)c1ccc(C(=O)N[C@@H](CCC(=O)O)C(=O)O)cc1 [Methotrexate hydrate] , tested on serine protease TMPRSS2 (Homo sapiens), IC50: > 30 µM

Result for C#CCC(Cc1cnc2nc(N)nc(N)c2n1)c1ccc(C(=O)N[C@@H](CCC(=O)O)C(=O)O)cc1 (stereo partly drawn) [Pralatrexate] , tested on serine protease TMPRSS2 (Homo sapiens), IC50: 0.45 µM

Source listed as paper PMC10221469.
